assay: Stability in mouse plasma, peptides 100 uM (Example 14); assay type: in vitro ADME; settings: pooled mouse plasma; mouse plasma 37° C.; peptide 100 uM; 15 min; read-out: % Remaining at Each Time Point: 15 min
PARAMETER MEASURED: remaining at 0.25 h, 100 uM (%)
Give just the numeric value; % need not be written.

# query: remaining at 0.25 h, 100 uM of entry H-MRWQEMGYIFYPR-OH [compound 47]
56.7

# query: remaining at 0.25 h, 100 uM of entry H-MRWQEMGYIFYPAKLR-OH [compound 18]
30.8

# query: remaining at 0.25 h, 100 uM of entry H-MRWQEMQYIFYPRALR-OH [compound 219]
44.5

# query: remaining at 0.25 h, 100 uM of entry H-WQEMGYIFYPRKLR-OH [compound 39]
39.5

# query: remaining at 0.25 h, 100 uM of entry H-MRWQEMQYIFYPR-OH [compound 209]
47.5

# query: remaining at 0.25 h, 100 uM of entry H-MRWQEMGYIFYPRKLR-OH [compound 2]
32
